Data provenance: ChEMBL document CHEMBL1129030

target.system: Integrin alpha-IIb/beta-3 (Homo sapiens, UniProt P05106+P08514)
Sequence (P05106 27-788 limits assumed): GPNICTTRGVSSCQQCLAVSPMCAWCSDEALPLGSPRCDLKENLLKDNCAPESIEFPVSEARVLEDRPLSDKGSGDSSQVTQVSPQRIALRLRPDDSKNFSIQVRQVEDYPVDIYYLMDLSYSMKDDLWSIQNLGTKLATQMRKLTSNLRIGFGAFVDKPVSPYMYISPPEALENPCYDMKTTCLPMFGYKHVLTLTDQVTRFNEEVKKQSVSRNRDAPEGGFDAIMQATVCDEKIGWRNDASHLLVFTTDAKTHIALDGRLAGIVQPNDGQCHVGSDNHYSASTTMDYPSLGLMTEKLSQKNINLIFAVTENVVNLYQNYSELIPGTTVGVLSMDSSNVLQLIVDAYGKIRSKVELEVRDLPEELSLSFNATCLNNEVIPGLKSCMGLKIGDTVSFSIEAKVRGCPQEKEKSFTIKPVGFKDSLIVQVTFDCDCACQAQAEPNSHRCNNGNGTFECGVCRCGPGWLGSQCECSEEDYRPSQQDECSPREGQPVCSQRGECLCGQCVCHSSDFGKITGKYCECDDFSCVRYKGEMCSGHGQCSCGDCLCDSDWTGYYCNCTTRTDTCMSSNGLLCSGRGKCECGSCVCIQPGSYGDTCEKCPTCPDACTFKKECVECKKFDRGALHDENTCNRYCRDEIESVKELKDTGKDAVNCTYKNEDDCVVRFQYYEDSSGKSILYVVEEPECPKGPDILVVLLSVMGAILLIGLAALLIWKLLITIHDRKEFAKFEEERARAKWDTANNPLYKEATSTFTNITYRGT
Sequence (P08514 32-887 limits assumed): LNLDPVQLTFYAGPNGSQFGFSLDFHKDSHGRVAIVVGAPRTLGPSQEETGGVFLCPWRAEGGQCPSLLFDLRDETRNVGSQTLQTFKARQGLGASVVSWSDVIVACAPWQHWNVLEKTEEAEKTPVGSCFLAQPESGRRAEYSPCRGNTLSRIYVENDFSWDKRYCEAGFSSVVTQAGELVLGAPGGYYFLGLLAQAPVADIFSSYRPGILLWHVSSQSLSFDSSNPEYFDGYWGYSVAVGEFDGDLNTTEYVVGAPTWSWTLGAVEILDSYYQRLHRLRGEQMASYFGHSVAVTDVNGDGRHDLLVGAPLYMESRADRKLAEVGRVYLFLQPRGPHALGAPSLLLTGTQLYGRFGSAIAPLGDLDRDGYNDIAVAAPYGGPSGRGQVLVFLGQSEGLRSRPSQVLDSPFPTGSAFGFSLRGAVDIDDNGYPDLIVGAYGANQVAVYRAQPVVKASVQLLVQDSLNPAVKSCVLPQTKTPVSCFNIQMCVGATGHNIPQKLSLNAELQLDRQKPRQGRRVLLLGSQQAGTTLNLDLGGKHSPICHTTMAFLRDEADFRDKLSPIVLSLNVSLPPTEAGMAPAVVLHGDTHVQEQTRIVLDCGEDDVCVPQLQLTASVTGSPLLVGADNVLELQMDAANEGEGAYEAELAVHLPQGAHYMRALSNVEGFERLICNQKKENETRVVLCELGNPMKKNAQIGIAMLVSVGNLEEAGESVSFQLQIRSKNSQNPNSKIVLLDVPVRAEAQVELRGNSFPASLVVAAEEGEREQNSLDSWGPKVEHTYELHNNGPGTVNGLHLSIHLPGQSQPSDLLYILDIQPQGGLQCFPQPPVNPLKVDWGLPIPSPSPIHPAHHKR
Sequence (P08514 891-1039 limits assumed): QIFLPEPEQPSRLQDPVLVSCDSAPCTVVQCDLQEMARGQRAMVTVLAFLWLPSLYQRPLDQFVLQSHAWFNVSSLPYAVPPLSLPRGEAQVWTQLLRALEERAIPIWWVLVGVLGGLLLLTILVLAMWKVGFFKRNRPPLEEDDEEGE
assay.summary: Inhibition of binding to purified integrin alphaIIb-beta3 of human platelets
Documented pKi across a set of compounds
The value called pKi is obtained by taking minus log10 of the concentration in mol/L.

Example cases with answers are listed next.
- compound: "CN(CCCC1CCNCC1)C(=O)c1ccc2c(c1)CN(CCc1ccccc1)C(=O)C(CC(=O)O)N2 (stereo unspecified)"
  pKi: 8.10
- compound: "CN1Cc2cc(C(=O)N3CCC(C4CCNCC4)CC3)ccc2NC(CC(=O)O)C1=O (stereo unspecified)"
  pKi: 8.40
- compound: "N=C(N)c1cccc(NC(=O)c2ccc3c(c2)CN(CCc2ccccc2)C(=O)C(CC(=O)O)N3)c1 (stereo unspecified)"
  pKi: 7.59
- compound: "CN(C(=O)c1ccc2c(c1)NC(CC(=O)O)C(=O)N(CCc1ccccc1)C2)c1ccc(C(=N)N)cc1 (stereo unspecified)"
  pKi: 8.80
- compound: "N=C(N)c1ccc(NC(=O)c2ccc3c(c2)NC(CC(=O)O)C(=O)N(CCc2ccccc2)C3)cc1 (stereo unspecified)"
  pKi: 8.55

Return pKi (reported value) for this compound: O=C(O)CC1Nc2ccc(C(=O)N3CCC(C4CCNCC4)CC3)cc2CN(CCc2ccccc2)C1=O (stereo unspecified)
8.82
